Target: T1, CD7-His protein (UniProt P09564 26-180, limits assumed)
T1 construct: extracellular domain; also called recombinant CD7-His protein; CD7 antigen; not shown: His tag
T1 sequence (looked up): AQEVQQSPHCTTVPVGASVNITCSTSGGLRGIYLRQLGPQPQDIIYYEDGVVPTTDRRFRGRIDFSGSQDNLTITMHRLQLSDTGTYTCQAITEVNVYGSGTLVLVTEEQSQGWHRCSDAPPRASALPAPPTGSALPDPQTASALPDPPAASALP
Assay: SPR, CD7-His immobilised on CM5 chip by amino coupling, antibody as analyte
metric: kon (M⁻¹ s⁻¹)

INSERT INTO results (binder, metric, experimental_value) VALUES
  ('VHH10 (VHH, Variable region only; also called anti-CD7 nanobody VHH10) VHH: QVQLQESGGGLVQTGGSLRLSCEASERTFSSNAVGWFRQAPGKEREFVAAITWSVGTTYYADSVKGRFTISRDNAKNTVYLQMNSLKPEDTAVYYCAASGARHYSGSYLDFGSWGQGTQVTVSS', 'kon', 164000),
  ('dVHH-D (other, also called VHH-10+VHH-12; double VHH antibody dVHH-D; not shown: Linker) chain (part 1 of 2): QVQLQESGGGLVQTGGSLRLSCEASERTFSSNAVGWFRQAPGKEREFVAAITWSVGTTYYADSVKGRFTISRDNAKNTVYLQMNSLKPEDTAVYYCAASGARHYSGSYLDFGSWGQGTQVTVSS chain (part 2 of 2): QVQLQESGGGLVQPGGSLRLSCAASGSTLDYYAIGWFRQAPGKEREGISCISNSGGMTNYADSVKGRFTISRDNAKNTVYLQMNSLKPEDTAVYYCAAGPAWSYCSGYVPAGLDKFGSWGQGTQVTVSS', 'kon', 225000),
  ('VHH12 (VHH, Variable region only; also called anti-CD7 nanobody VHH12) VHH: QVQLQESGGGLVQPGGSLRLSCAASGSTLDYYAIGWFRQAPGKEREGISCISNSGGMTNYADSVKGRFTISRDNAKNTVYLQMNSLKPEDTAVYYCAAGPAWSYCSGYVPAGLDKFGSWGQGTQVTVSS', 'kon', 74200),
  ('dVHH-E (other, also called VHH-10+VHH-10; double VHH antibody dVHH-E; not shown: Linker) chain (part 1 of 2): QVQLQESGGGLVQTGGSLRLSCEASERTFSSNAVGWFRQAPGKEREFVAAITWSVGTTYYADSVKGRFTISRDNAKNTVYLQMNSLKPEDTAVYYCAASGARHYSGSYLDFGSWGQGTQVTVSS chain (part 2 of 2): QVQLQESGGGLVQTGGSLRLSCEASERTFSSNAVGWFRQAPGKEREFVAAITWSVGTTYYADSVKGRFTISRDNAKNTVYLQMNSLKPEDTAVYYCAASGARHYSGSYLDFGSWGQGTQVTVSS', 'kon', 123000);
